Source: patent US20240209076A1

target: human IL-6 (human, UniProt P05231 30-212); assay: SPR Biacore, supernatant, Protein A capture, 37 C
Sequence (P05231 30-212 limits assumed): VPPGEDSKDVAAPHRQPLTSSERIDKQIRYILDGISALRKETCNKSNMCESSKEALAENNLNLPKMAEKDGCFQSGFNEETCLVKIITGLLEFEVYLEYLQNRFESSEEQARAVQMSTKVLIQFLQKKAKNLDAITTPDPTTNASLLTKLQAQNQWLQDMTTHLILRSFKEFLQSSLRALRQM
Exercise: state measured log10 of Kd for each of the binders provided.
Recorded Kd (log10, nM)

Value lookup for log10 of Kd; key = Anti-IL-6 antibody, heavy chain S35H, G66D, L100K / light chain M32L, M50D, N52S, M88Q (antibody, IgG1, V domains shown, IgG1; variable domains only; VL is variant III) VH: EVQLVESGGGLVQPGGSLRLSCAASGFTFSPFAMHWVRQAPGKGLEWVAKISPGGSWTYYSDTVTDRFTFSLDTSKSTAYLQMNSLRAEDTAVYYCARQKWGYYALDIWGQGTLVTVSS VL: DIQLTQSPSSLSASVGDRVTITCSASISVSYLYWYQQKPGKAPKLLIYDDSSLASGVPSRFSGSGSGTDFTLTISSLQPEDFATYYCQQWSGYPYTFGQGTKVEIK -0.72

Value lookup for log10 of Kd; key = Anti-IL-6 antibody, heavy chain S35H, G66D, Q99A / light chain WT (antibody, IgG1, V domains shown, IgG1; variable domains only) VH: EVQLVESGGGLVQPGGSLRLSCAASGFTFSPFAMHWVRQAPGKGLEWVAKISPGGSWTYYSDTVTDRFTFSLDTSKSTAYLQMNSLRAEDTAVYYCARALWGYYALDIWGQGTLVTVSS VL: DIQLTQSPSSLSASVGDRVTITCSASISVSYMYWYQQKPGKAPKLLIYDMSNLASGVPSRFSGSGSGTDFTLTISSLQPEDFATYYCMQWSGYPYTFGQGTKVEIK -0.14

Which log10 of Kd value is on record for Anti-IL-6 antibody, heavy chain S35H, G66D, Q99D / light chain M32L, M50D, N52S, M88Q (antibody, IgG1, V domains shown, IgG1; variable domains only; VL is variant III) VH: EVQLVESGGGLVQPGGSLRLSCAASGFTFSPFAMHWVRQAPGKGLEWVAKISPGGSWTYYSDTVTDRFTFSLDTSKSTAYLQMNSLRAEDTAVYYCARDLWGYYALDIWGQGTLVTVSS VL: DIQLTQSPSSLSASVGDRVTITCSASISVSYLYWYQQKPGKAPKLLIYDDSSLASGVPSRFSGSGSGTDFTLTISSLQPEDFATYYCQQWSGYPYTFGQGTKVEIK ? 0.56

May I ask what log10 of Kd has been recorded for Anti-IL-6 antibody, heavy chain S35H, G66D, Q99Y / light chain WT (antibody, IgG1, V domains shown, IgG1; variable domains only) VH: EVQLVESGGGLVQPGGSLRLSCAASGFTFSPFAMHWVRQAPGKGLEWVAKISPGGSWTYYSDTVTDRFTFSLDTSKSTAYLQMNSLRAEDTAVYYCARYLWGYYALDIWGQGTLVTVSS VL: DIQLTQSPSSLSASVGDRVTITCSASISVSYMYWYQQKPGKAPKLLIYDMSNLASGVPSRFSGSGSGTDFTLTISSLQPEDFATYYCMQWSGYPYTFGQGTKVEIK ? -0.08

# lookup: log10 of Kd of Anti-IL-6 antibody, heavy chain S35H, G66D, L100A / light chain WT (antibody, IgG1, V domains shown, IgG1; variable domains only) VH: EVQLVESGGGLVQPGGSLRLSCAASGFTFSPFAMHWVRQAPGKGLEWVAKISPGGSWTYYSDTVTDRFTFSLDTSKSTAYLQMNSLRAEDTAVYYCARQAWGYYALDIWGQGTLVTVSS VL: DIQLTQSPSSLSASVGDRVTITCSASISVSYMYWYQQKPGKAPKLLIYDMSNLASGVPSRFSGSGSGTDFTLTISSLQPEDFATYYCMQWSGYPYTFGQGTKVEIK -0.74

// log10 of Kd lookup, key: Anti-IL-6 antibody, heavy chain S35H, G66D, Q99G / light chain M32L, M50D, N52S, M88Q (antibody, IgG1, V domains shown, IgG1; variable domains only; VL is variant III) VH: EVQLVESGGGLVQPGGSLRLSCAASGFTFSPFAMHWVRQAPGKGLEWVAKISPGGSWTYYSDTVTDRFTFSLDTSKSTAYLQMNSLRAEDTAVYYCARGLWGYYALDIWGQGTLVTVSS VL: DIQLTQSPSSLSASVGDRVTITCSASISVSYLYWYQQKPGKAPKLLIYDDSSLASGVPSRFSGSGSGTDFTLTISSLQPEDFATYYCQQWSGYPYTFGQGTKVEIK 0.41

Which log10 of Kd is reported for this binder? Anti-IL-6 antibody, heavy chain S35H, G66D, Q99S / light chain M32L, M50D, N52S, M88Q (antibody, IgG1, V domains shown, IgG1; variable domains only; VL is variant III) VH: EVQLVESGGGLVQPGGSLRLSCAASGFTFSPFAMHWVRQAPGKGLEWVAKISPGGSWTYYSDTVTDRFTFSLDTSKSTAYLQMNSLRAEDTAVYYCARSLWGYYALDIWGQGTLVTVSS VL: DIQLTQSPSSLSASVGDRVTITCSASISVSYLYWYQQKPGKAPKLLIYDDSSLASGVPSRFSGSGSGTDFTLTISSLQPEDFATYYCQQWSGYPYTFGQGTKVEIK 0.88

# log10 of Kd lookup, item Anti-IL-6 antibody, heavy chain S35H, G66D, L100H / light chain M32L, M50D, N52S, M88Q (antibody, IgG1, V domains shown, IgG1; variable domains only; VL is variant III) VH: EVQLVESGGGLVQPGGSLRLSCAASGFTFSPFAMHWVRQAPGKGLEWVAKISPGGSWTYYSDTVTDRFTFSLDTSKSTAYLQMNSLRAEDTAVYYCARQHWGYYALDIWGQGTLVTVSS VL: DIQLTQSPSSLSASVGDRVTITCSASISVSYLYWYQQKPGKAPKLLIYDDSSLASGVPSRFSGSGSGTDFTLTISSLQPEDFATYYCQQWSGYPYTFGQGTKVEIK -0.08

State the recorded log10 of Kd for this entry: Anti-IL-6 antibody, heavy chain S35H, G66D, L100R / light chain M32L, M50D, N52S, M88Q (antibody, IgG1, V domains shown, IgG1; variable domains only; VL is variant III) VH: EVQLVESGGGLVQPGGSLRLSCAASGFTFSPFAMHWVRQAPGKGLEWVAKISPGGSWTYYSDTVTDRFTFSLDTSKSTAYLQMNSLRAEDTAVYYCARQRWGYYALDIWGQGTLVTVSS VL: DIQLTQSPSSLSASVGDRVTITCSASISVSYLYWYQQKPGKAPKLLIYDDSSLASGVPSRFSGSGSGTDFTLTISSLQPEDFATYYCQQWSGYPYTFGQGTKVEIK -0.06

I'd like to know its log10 of Kd. The binder in question is Anti-IL-6 antibody, heavy chain S35H, G66D, L100E / light chain WT (antibody, IgG1, V domains shown, IgG1; variable domains only) VH: EVQLVESGGGLVQPGGSLRLSCAASGFTFSPFAMHWVRQAPGKGLEWVAKISPGGSWTYYSDTVTDRFTFSLDTSKSTAYLQMNSLRAEDTAVYYCARQEWGYYALDIWGQGTLVTVSS VL: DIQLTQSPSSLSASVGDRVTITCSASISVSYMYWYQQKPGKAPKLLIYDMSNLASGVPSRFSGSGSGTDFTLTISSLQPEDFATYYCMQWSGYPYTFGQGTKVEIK -0.12
